I'd be grateful if you could share measured pIC50 for these entries.
target: Bet bromodomain protein (BRD4) (Homo sapiens, UniProt O60885); test: Bet bromodomain TR-FRET assay; details: 300 nM acetyl histone peptide substrate, results given as Group A/B/C
pIC50: −log10 of the molar value.

Recorded results for 5 molecules are shown here.
# MOLECULE, SYSTEM TESTED, pIC50
rows = [
    ("COc1cc2c(cc1-c1c(C)noc1C)OCCN2C(C)c1cccnc1 (centres unmarked)", "Bet bromodomain protein (BRD4) (Homo sapiens, UniProt O60885)", "≥ 6.00"),
    ("COc1cc2c(cc1-c1c(C)n[nH]c1C)OCC(=O)N2Cc1ccc(Cl)cc1", "Bet bromodomain protein (BRD4) (Homo sapiens, UniProt O60885)", "≥ 6.00"),
    ("COc1cc2c(ccc(=O)n2C(=O)c2ccc(Cl)cc2)cc1-c1c(C)noc1C", "Bet bromodomain protein (BRD4) (Homo sapiens, UniProt O60885)", "< 5.52"),
    ("COc1cc2c(ccc(=O)n2Cc2ccc(-c3cnn(C)c3)cn2)cc1-c1c(C)noc1C", "Bet bromodomain protein (BRD4) (Homo sapiens, UniProt O60885)", "≥ 6.00"),
    ("COc1cc2c(cc1-c1c(C)noc1C)cc(C(O)C(F)(F)F)c(=O)n2Cc1ccccn1 (racemic) [Compound 101]", "Bet bromodomain protein (BRD4) (Homo sapiens, UniProt O60885)", "≥ 6.00"),
]

Take each entry in turn and give its pIC50.
1. COc1cc2c(cc1-c1c(C)noc1C)OCC(=O)N2Cc1ccccn1
2. COc1cc2c(cc1-c1c(C)noc1C)OC(C)(C)C(=O)N2Cc1cccnc1
3. COc1cc2c(cc1-c1c(C)noc1C)OCC(=O)N2Cc1ccc(Cl)cn1

≥ 6.00
≥ 6.00
≥ 6.00

----------
target: Bet bromodomain protein (BRD4) (Homo sapiens); assay: Bet bromodomain TR-FRET assay; conditions: 300 nM acetyl histone peptide substrate, results given as Group A/B/C
pIC50: −log10 of the molar value.
EXPERIMENTAL ENDPOINT: pIC50

# COMPOUND, SYSTEM TESTED, EXPERIMENTAL ENDPOINT, EXPERIMENTAL RESULT
records = [
    ("COc1cc2c(cc1-c1c(C)noc1C)cc(C(O)C(F)(F)F)c(=O)n2Cc1ccccn1 (single isomer, unassigned) [Compound 102]", "Bet bromodomain protein (BRD4) (Homo sapiens)", "pIC50", "≥ 6.00"),
    ("COCCOc1cc2c(cc1-c1c(C)noc1C)OCC(=O)N2Cc1ccncc1", "Bet bromodomain protein (BRD4) (Homo sapiens)", "pIC50", "< 5.52"),
    ("COc1cc2c(cc1-c1c(C)noc1C)OCC(=O)N2Cc1ccc(F)cn1", "Bet bromodomain protein (BRD4) (Homo sapiens)", "pIC50", "≥ 6.00"),
]

Let's switch to this compound now.
Name the reported pIC50 value associated with the compound Cc1noc(C)c1-c1cc2ccc(=O)n(Cc3ccccn3)c2cc1OC(F)(F)F
5.52 to 6.00

----------
target: Bet bromodomain protein (BRD4) (Homo sapiens); construct: made in house; test: Bet bromodomain TR-FRET assay; type: binding; details: 300 nM acetyl histone peptide substrate, results given as Group A/B/C
pIC50: −log10 of the molar value. Structures can show the parent of a compound that is named as a salt.
EXPERIMENTAL ENDPOINT: pIC50

Recorded results for 2 compounds are shown here.
# COMPOUND, EXPERIMENTAL ENDPOINT, EXPERIMENTAL RESULT
measured = [
    ("COc1cc2c(cc1-c1c(C)noc1C)CCC(=O)N2Cc1ccc(Cl)cc1", "pIC50", "≥ 6.00"),
    ("COc1cc2c(cc1-c1c(C)noc1C)OCC(=O)N2C(C)c1ccccn1 (stereo not shown)", "pIC50", "5.52 to 6.00"),
]

Take each entry in turn and give its pIC50.
1. C=CCOc1cc2c(ccc(=O)n2Cc2ccccn2)cc1-c1c(C)noc1C
2. COc1cc2c(cc1-c1c(C)noc1C)OCCN2S(=O)(=O)c1cccnc1

["≥ 6.00", "5.52 to 6.00"]

Take each entry in turn and give its pIC50.
1. COc1ccc(Cn2c(=O)ccc3cc(-c4c(C)noc4C)c(OC)cc32)nc1
2. COc1cc2c(cc1-c1c(C)noc1C)c(C1CC1)cc(=O)n2Cc1ccccn1
3. Cc1noc(C)c1-c1cc2ccc(=O)n(Cc3ccccn3)c2cc1OCCN1CCNCC1
4. COc1cc2c(cc1-c1c(C)noc1C)cc(C(O)(O)C(F)(F)F)c(=O)n2Cc1ccccn1
5. Cc1noc(C)c1-c1cc2ccc(=O)n(Cc3ccccn3)c2cc1OCc1ccncc1
6. COc1cc2c(ccc(=O)n2Cc2ccccn2)cc1-c1ccc(O)nc1
7. COc1cc2c(cc1NC(=O)c1c(C)noc1C)OCC(=O)N2Cc1ccc(Cl)cc1
8. Cc1noc(C)c1-c1cc2ccc(=O)n(Cc3ccccn3)c2cc1OCCC1CCNC1 (stereo not shown) [Compound 89, hydrochloride]

1: ≥ 6.00; 2: ≥ 6.00; 3: 5.52 to 6.00; 4: ≥ 6.00; 5: ≥ 6.00; 6: < 5.52; 7: < 5.52; 8: ≥ 6.00

Take each entry in turn and give its pIC50.
1. Cc1noc(C)c1-c1cc2ccc(=O)n(Cc3ccccn3)c2cc1OCC1CCNCC1
2. COc1cc2c(cc1-c1c(C)noc1C)OCCN2Cc1ccc(Cl)cc1
3. COc1cc2c(cc1-c1c(C)noc1C)OCC(=O)N2C(C)c1ccncc1 (single isomer, unassigned) [Compound 19]
4. COc1cc2c(cc1-c1c(C)noc1C)OCC(=O)N2Cc1ccncc1
5. COc1cc2c(ccc(=O)n2S(=O)(=O)c2ccc(Cl)cc2)cc1-c1c(C)noc1C
6. Cc1noc(C)c1-c1cc2ccc(=O)n(Cc3ccccn3)c2cc1OC1CCNCC1
7. COc1cc2c(cc1-c1c(C)noc1C)C(C)(C)CC(=O)N2Cc1ccccn1
8. COc1cc2c(ccc(=O)n2Cc2ccccn2)cc1-c1c(C2CC2)noc1C

≥ 6.00
≥ 6.00
< 5.52
≥ 6.00
< 5.52
< 5.52
< 5.52
≥ 6.00

Take each entry in turn and give its pIC50.
1. COc1cc2c(ccc(=O)n2C(C)c2cccnc2)cc1-c1c(C)noc1C (stereo not shown)
2. Cc1noc(C)c1-c1cc2ccc(=O)n(Cc3ccccn3)c2cc1OCCCO

1: ≥ 6.00; 2: ≥ 6.00
